Below, each entry is listed alongside its reported AC50.
- EXPERIMENTAL_SYSTEM: p53 Y220C (Homo sapiens, UniProt P04637, Y220C)
- ASSAY_DETAILS: Luciferase Reporter Assay (Luc), p53 response element, NClH1299 cells with inducible p53 Y220C
- Format: cell-based
- PARTICULARS: AC50; luciferase reporter, NClH1299 inducible p53 Y220C, 6 hour; read-out: Luc P53 Y220C AC50

CNC(=O)c1ccc(OC)c(NCC#Cc2nn3c(N[C@@H]4CN(C)C[C@@H]4F)cccc3c2SC(F)(F)F)n1 [Example 253] :: < 750 nM
CNC(=O)c1ccc(NCC#Cc2nn3c(N[C@@H]4CCN(C)C[C@@H]4F)cccc3c2SC(F)(F)F)c(OC)c1 [Example 223] :: < 750 nM
[2H]C([2H])([2H])Oc1cc(S(C)(=O)=O)ccc1NCC#Cc1cc2c(N[C@@H]3CCN(C(F)(F)F)C[C@@H]3F)cccn2c1SC(F)(F)F [Example 412] :: < 750 nM

Req: Need AC50, item COc1cc(C(N)=O)ccc1NCC#Cc1nn2c(N[C@@H]3CCN(C)C[C@@H]3F)cccc2c1SC(F)(F)F [Example 233]
Resp: < 750 nM

Req: Name the reported AC50 value associated with the compound CNC(=O)c1ccc(OC)c(NCC#Cc2nc3c(N[C@@H]4CCNC[C@@H]4F)nccn3c2SC(F)(F)F)c1 [Example 307]
Resp: < 750 nM

Req: Entry COc1cc(C(=O)NC[C@@H](O)CO)ccc1NCC#Cc1cc2c(N[C@@H]3CCN(C)C[C@@H]3F)cccn2c1SC(F)(F)F [Example 421] : reported AC50 = ?
Resp: < 750 nM

Req: Please give the measured AC50 for this compound: O=C(NCC1(O)CC1)c1ccc(NCC#Cc2cc3c(N[C@@H]4CCNC[C@@H]4F)cccn3c2SC(F)(F)F)cc1 [Example 367]
Resp: < 750 nM

====

- System: H1299 p53 R273H
- ASSAY_DETAILS: Cell Proliferation Assay (CellTiter-Glo, CTG), H1299 p53 R273H (NClH1299-inducible p53 R273H)
- Assay type: cell-based
- PARTICULARS: Homo sapiens, NCI-H1299, 120 h, CellTiter-Glo, H1299 p53 R273H, 5 days
PROPERTY_LABEL: IC50

Below, each entry is followed by its recorded IC50 result.
CCS(=O)(=O)c1ccc(NCC#Cc2nc3c(N[C@@H]4CCN(C)C[C@@H]4F)cccn3c2SC(F)(F)F)c(OC)c1 :: 8 to 10 µM
CNC(=O)c1ccc(NCC#Cc2nc3c(N[C@@H]4CCC(=O)N(C)C4)cccn3c2SC(F)(F)F)c(OC)c1 :: ≥ 10 µM
COc1cc(S(C)(=O)=O)ccc1NCC#Cc1nc2c(N[C@@H]3CCN(C)C[C@@H]3F)cccn2c1SC(F)(F)F :: 8 to 10 µM

Next, consider the following molecule.
Req: Need IC50 of `C=CC(=O)N(C)c1c(C#CCNc2ccc(C(=O)NC)cc2OC)nc2c(N[C@@H]3CCN(C)C[C@@H]3F)cccn12` , thanks.
Resp: ≥ 10 µM

====

- Tested on: H1299 p53 Y220C
- ASSAY_DETAILS: Cell Proliferation Assay (CellTiter-Glo, CTG), H1299 p53 Y220C (NClH1299-inducible p53 Y220C)
- Assay type: cell-based
- PARTICULARS: Homo sapiens, NCI-H1299, 120 h, CellTiter-Glo, H1299 p53 Y220C, 5 days
pIC50: −log10 of the molar value.
PROPERTY_LABEL: pIC50

// known answers, use as guide
CN1CC[C@@H](Nc2cccn3c(CC(F)(F)F)c(C#CCNc4ccccc4)nc23)[C@@H](F)C1 [Example 112] :: < 5.52
CCc1c(C#CCNc2ccc(S(C)(=O)=O)cc2OC)nc2c(NC3CCN(C)CC3)cccn12 [Example 16] :: < 5.52
CNC(=O)c1ccc(NCC#Cc2nc3c(N[C@@H]4CCn5cncc5C4)cccn3c2SC(F)(F)F)c(OC)c1 [Example 176] :: 5.82 to 6.12
COc1cc(S(C)(=O)=O)ccc1NCC#Cc1nc2c(NC3CCN(C)CC3)cccn2c1CC(F)(F)F [Example 2] :: 5.52 to 5.82
CNC(=O)c1ccc(OC)c(NCC#Cc2nc3c(N[C@@H]4CCN(C)C[C@@H]4F)nccn3c2SC(F)(F)F)c1 [Example 212] :: > 6.12

Req: Query (compound): CNC(=O)c1ccc(OC)c(NCC#Cc2nc3c(N[C@@H]4CCNC[C@@H]4F)cccn3c2SC(F)F)n1 [Example 193] ; field requested: pIC50
Resp: > 6.12

Req: Which pIC50 value is on record for C=CC(=O)Nc1c(C#CCNc2ccc(C(=O)NC)cc2OC)nc2c(N[C@@H]3CCN(C)C[C@@H]3F)cccn12 [Example 23] ?
Resp: < 5.52
